Test target: Ribosomal protein S6 kinase alpha-3 (Homo sapiens)
Protocol conditions: at 1 µM
Description: GSK_PKIS: RSK2 mean inhibition at 1 uM [Nanosyn]
Give inhibition for every item shown.
Field: value (include unit after the number)

Example results:
1. Fc1ccc(-c2ncn(C3CCNCC3)c2-c2ccnc(Oc3ccc4c(c3)OCO4)n2)cc1	2.18%
2. O=C(NCC1CC1)c1ccc(-c2cccc(C(=O)NC3CC3)c2)cc1	-1.16%
3. NS(=O)(=O)c1ccc(N/N=C2\C(=O)Nc3ccc(-c4cnco4)cc32)cc1	2.65%

Please state inhibition for every molecule in the list that follows.
1. Clc1ccc(CNc2nccc(-c3cnn4ncccc34)n2)cc1
2. CS(=O)(=O)CCNCc1ccc(-c2ccc3ncnc(Nc4ccc(OCc5ccccc5)c(Br)c4)c3c2)o1
3. O=C(Nc1n[nH]c2cc(-c3ccccc3)ccc12)C1CC1
4. Cc1ccc(NC(=O)c2ccoc2)cc1-c1ccc(C(=O)NCC2CC2)cc1
5. COc1ccc(-c2ccc3c(NC(=O)C4CC4)n[nH]c3n2)cc1

Response line:
0.52%
-1.39%
0.07%
0.11%
3%

Record inhibition for all entries; do not skip any.
1. NC(=O)c1cc(-c2ccc(F)cc2)cc(-c2ccncc2)c1N
2. c1ccc(-c2n[nH]cc2-c2ccnc(-c3ccc(OCCN4CCOCC4)cc3)c2)nc1

Response line:
1.79%
0.57%

###

Test target: Proto-oncogene tyrosine-protein kinase ROS (Homo sapiens) (UniProt P08922);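 also: value given is the mean percent inhibition of ROS kinase activity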
Protocol conditions: at 1 µM
Answer each item with its documented inhibition.
Numbers only, in %.

Consider the following illustrative entries.
1. COc1cc(C)c(N(C)C(=O)CN(C)C)cc1Nc1nc(Nc2cccc(F)c2C(N)=O)c2cc[nH]c2n1	51.2
2. Fc1ccc(-c2ncn(C3CCNCC3)c2-c2ccnc(Oc3ccc(Oc4ccccc4)cc3)n2)cc1	11
3. FC(F)(F)c1cccc(Nc2nccc(-c3cnn4nc(-c5ccccc5)ccc34)n2)c1	9.02

Alright, here's another compound for you.
Prompt line: For the compound shown here, O=C(Nc1n[nH]c2nc(-c3ccco3)ccc12)C1CC1 , give the reported inhibition.
Response line: 3.03

###

Test system: Leucine-rich repeat serine/threonine-protein kinase 2 (Homo sapiens), Q5S007 [G2019S]
Sequence (Q5S007 whole entry G2019S): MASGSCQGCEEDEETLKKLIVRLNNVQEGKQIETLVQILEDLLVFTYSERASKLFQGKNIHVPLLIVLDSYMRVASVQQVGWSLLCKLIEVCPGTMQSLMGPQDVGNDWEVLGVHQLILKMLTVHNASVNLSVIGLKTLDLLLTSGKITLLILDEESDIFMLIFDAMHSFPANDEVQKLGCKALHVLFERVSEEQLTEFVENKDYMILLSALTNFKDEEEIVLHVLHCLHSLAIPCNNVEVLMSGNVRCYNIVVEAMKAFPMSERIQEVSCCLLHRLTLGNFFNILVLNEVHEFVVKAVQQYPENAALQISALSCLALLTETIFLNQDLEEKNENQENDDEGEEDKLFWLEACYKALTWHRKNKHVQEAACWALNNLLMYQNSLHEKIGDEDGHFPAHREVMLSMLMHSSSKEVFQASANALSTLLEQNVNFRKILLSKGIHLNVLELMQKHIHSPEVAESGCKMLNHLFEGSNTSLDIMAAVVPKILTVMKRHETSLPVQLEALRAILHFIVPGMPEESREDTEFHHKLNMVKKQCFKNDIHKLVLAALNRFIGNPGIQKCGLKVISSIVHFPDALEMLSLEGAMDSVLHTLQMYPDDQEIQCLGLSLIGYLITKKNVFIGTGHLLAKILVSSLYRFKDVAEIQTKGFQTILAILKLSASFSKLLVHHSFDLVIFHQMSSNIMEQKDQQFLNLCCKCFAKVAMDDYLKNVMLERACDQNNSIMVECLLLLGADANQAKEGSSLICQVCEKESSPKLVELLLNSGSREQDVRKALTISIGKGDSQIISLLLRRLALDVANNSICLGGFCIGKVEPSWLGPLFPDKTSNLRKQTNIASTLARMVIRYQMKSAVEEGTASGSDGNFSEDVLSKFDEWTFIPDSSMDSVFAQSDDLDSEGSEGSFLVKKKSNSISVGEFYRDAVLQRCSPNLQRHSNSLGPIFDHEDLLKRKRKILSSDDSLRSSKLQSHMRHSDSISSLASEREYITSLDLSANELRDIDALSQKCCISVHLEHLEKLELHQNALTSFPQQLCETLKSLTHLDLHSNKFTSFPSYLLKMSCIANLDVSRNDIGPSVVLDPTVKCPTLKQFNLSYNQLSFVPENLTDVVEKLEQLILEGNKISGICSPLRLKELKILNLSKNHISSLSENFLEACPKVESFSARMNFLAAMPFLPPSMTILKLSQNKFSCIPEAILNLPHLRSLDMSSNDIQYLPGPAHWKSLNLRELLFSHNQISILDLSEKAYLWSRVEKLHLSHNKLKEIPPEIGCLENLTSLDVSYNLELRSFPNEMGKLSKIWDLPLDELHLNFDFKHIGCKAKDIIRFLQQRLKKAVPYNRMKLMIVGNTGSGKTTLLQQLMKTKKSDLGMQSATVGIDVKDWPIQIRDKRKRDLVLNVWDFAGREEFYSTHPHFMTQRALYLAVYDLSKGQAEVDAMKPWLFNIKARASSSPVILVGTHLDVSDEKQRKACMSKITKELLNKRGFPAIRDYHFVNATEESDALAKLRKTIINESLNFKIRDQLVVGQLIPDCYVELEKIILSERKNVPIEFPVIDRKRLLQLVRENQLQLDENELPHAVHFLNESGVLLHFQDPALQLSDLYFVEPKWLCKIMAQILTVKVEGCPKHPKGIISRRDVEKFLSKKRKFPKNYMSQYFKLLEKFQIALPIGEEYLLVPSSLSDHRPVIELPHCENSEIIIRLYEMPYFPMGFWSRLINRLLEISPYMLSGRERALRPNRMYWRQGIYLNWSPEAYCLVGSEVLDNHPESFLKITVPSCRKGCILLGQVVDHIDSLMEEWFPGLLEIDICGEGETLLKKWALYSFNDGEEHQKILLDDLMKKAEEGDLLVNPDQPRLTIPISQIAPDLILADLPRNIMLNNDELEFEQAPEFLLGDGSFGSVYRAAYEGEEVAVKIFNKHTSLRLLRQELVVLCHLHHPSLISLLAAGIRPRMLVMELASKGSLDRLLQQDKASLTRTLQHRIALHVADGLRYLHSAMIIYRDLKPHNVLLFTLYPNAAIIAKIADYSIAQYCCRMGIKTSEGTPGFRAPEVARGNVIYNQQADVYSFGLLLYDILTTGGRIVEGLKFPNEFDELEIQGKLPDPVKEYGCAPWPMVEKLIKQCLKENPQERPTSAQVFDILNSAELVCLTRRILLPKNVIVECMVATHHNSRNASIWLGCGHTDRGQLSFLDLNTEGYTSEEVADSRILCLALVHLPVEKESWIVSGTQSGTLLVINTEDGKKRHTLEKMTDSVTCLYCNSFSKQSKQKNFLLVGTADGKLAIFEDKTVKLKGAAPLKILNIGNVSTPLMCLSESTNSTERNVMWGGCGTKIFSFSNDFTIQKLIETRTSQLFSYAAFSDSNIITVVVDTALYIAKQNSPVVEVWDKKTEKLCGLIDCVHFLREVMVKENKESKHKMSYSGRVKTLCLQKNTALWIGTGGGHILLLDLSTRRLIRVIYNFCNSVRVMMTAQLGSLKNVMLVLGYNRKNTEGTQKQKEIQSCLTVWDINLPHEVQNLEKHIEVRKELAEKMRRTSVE
Protocol conditions: at 0.1 µM
Would you kindly list inhibition for each of these compounds?
Answers are plain numbers, in %.

Solved entries:
1) Fc1ccc(-c2ncn(C3CCNCC3)c2-c2ccnc(Oc3ccc(F)c(F)c3)n2)cc1	0.63
2) COC(=O)Nc1nc2ccc(Sc3ccc(NC(=O)Nc4cc(C(F)(F)F)ccc4F)cc3)cc2[nH]1	0.3
3) NC(=O)c1ccc(Oc2nccc(-c3c(-c4ccc(F)cc4)ncn3C3CCNCC3)n2)cc1	3.7
4) COc1cc(Nc2ncc(-c3ccccc3)o2)cc(OC)c1OC	4.17
5) FC(F)(F)c1cccc(Nc2nccc(-c3cnn4nc(-c5ccccc5)ccc34)n2)c1	2.35

Now let's try a different one.
Prompt line: Please give the measured inhibition for this compound: NC(=O)c1cc(-c2ccc(F)cc2)cc(-c2ccncc2)c1N
Response line: 0.41

###

Test target: Tyrosine-protein kinase Yes (Homo sapiens) (UniProt P07947);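 also: mean inhibition of YES, from the GSK PKIS dataset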
Sequence (P07947 2-543 limits assumed): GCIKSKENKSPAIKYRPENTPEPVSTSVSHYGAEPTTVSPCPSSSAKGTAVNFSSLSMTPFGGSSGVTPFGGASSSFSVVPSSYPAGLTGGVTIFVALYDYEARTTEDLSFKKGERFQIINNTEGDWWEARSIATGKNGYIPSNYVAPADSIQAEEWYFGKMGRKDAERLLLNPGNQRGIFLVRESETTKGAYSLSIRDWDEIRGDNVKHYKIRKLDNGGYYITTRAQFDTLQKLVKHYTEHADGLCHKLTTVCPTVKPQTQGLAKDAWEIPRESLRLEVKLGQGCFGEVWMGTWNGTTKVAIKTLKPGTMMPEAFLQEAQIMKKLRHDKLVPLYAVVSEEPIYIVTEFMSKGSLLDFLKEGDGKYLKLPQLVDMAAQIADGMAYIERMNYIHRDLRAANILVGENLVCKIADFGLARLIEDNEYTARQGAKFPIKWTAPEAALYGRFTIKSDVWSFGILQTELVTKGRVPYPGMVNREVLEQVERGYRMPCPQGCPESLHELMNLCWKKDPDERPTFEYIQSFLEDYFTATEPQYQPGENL
Protocol conditions: at 0.1 µM
Provide the reported inhibition of each item.
Numbers only, in %.

Before answering, review these 4 worked examples.
1) CN(c1ccc(NC(=O)Nc2c(Cl)cccc2Cl)cc1)c1ccnc(Nc2cccc(CS(C)(=O)=O)c2)n1	17.6
2) Fc1ccc(-c2c(-c3ccncc3)nc3n2CCS3)cc1	2.78
3) COc1cc(Nc2ncc3c(C)nc(-c4cccc(C(F)(F)F)c4)n3n2)cc(OC)c1OC	11.6
4) C[C@@H](Oc1cc(-n2cnc3ccc(OCC4CCN(C)CC4)cc32)sc1C(N)=O)c1ccccc1Cl	2.66

Please supply inhibition for each of the following items, keeping them in order.
1. COc1cccc(/C=N/Nc2ncnc3c2cnn3-c2cccc(OC)c2)c1
2. COc1ccc2ncn(-c3cc(O[C@H](C)c4ccccc4Cl)c(C(N)=O)s3)c2c1
3. Cc1ccc(NC(=O)c2ccoc2)cc1-c1ccc(C(=O)NCC2CC2)cc1
4. CCC(=O)Nc1ccc(C)c(-c2ccc(C(=O)NCC3CC3)cc2)c1

Response line:
[2.39, 1.1, 3.34, 3.12]

Please supply inhibition for each of the following items, keeping them in order.
1. O=C(Nc1ccc(Oc2ccc3[nH]c(NC(=O)c4ccccc4)nc3c2)cc1)Nc1cc(C(F)(F)F)ccc1F
2. NC(=O)c1cc(-c2ccncc2)cc(-c2ccccc2)c1N
3. COc1ccc(C2=C(N3CCc4ccccc43)C(=O)NC2=O)cc1
4. CCc1cccc(CC)c1/C=C/c1cncc(C(=O)NC)c1

Response line:
1. 1.01
2. 7.5
3. 4.87
4. 3.04
